Assay: fission yeast growth modulation, primary screen, strain 972, OD600, 24 h, no modulator (AID 1090);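 further: basal condition with compound alone and no growth modifier present; test concentration not given here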
Conditions: S. pombe 972 growth, higher = more signal, called active from +8 up or from −8 down
recorded metric: z-score
The answer should be written as a number, with no unit following it.

Consider the following illustrative entries.
- compound: "COCCOC(=O)N1C(=O)[C@@]2(c3cc(C#Cc4ccc(OC)cc4)ccc31)[C@H](C(=O)N1CCN(c3ncccn3)CC1)[C@H]1C(=O)O[C@H](c3ccccc3)[C@H](c3ccccc3)N1[C@@H]2c1ccc(O)cc1"
  recorded number: -0.197
- compound: "O=C1O[C@H](c2ccccc2)[C@H](c2ccccc2)N2[C@H]1[C@@H](C(=O)O)[C@]1(C(=O)Nc3ccc(C#CC4(O)CCCCCC4)cc31)[C@H]2c1ccc(OCCO)cc1"
  recorded number: 0.219
- compound: "CCCC[C@H]1OB(O)C[C@H]2C1=C(C)C[C@H]1C(=O)N(Cc3ccccc3)C(=O)[C@H]12"
  recorded number: -1.33
- compound: "CCOC(=O)C1=CCC(c2ccc(C#N)cc2)N(S(=O)(=O)c2ccc(C)cc2)C1 (stereo unspecified)"
  recorded number: 0.0767
- compound: "COc1ccc(NN2C(C(O)c3ccc(OC)c(OCc4ccccc4)c3)C=CC3C(=O)N(C4CCCCC4)C(=O)C32)cc1 (stereo unspecified)"
  recorded number: 0.225

Would you kindly look at the next entry?
Kindly note the recorded z-score for NC(=O)NCC#Cc1ccc2c(c1)[C@]1(C(=O)N2)[C@H](C(=O)NC[C@H](O)c2ccccc2)[C@H]2C(=O)O[C@H](c3ccccc3)[C@H](c3ccccc3)N2[C@@H]1c1ccc(O)cc1 , which is 1.06

----------
Tested on: Sonic hedgehog protein (Shh)
Test: small-molecule binders of Shh protein, primary screen, biochemical, small-molecule microarray, 635/667 nm fluorescence (AID 1151);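 further: Shh protein binding to compounds spotted on small-molecule microarray slides; score combines spot fluorescence intensity with signal-to-noise across triplicate slides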
Details: small-molecule microarray binding, 635 nm fluorescence; higher = more signal
Assign MET whenever composite z-score does not fall below 0.7; assign NOT MET whenever it does.

- compound: "C[C@]1(C(=O)NCc2ccccc2)c2ccccc2C(=O)N(Cc2ccc(OC(F)(F)F)cc2)[C@H]1c1ccc(CO)cc1"
  tested target: "Sonic hedgehog protein (Shh)"
  assigned class: "NOT MET"

Reported composite z-score reaches at least 0.7 for Cc1cc(C)cc(N2C(=O)CS(=O)(=O)C2c2cccc([N+](=O)[O-])c2)c1 (stereo not given) ?
NOT MET

Please tell me: is the compound CO[C@H]1O[C@H](CO)[C@@H](OC(=O)Nc2ccc3c(c2)OCO3)[C@H](OC(=O)Nc2ccccc2)[C@H]1OC(=O)Nc1ccccc1 at or over 0.7 in terms of composite z-score?
MET

Is reported composite z-score greater than or equal to 0.7 here: CN(C)CCCCNC(=O)[C@H]1C[C@H]2C(=O)N[C@@H](Cc3ccccc3)C(=O)N2[C@H]1c1ccc(O)cc1
MET

Is composite z-score for O=C(CS)NCCCCCCNC(=O)[C@H]1C[C@H]2C(=O)N3CCC[C@H]3C(=O)N2[C@H]1c1cccc(OCCO)c1 at or above 0.7?
MET

----------
Recorded measurements of composite z-score, one per entry
Assay: small-molecule microarray binders of probe aNog, primary screen, biochemical, biotinylated probe, 635/667 nm fluorescence (AID 1115);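 further: probe is biotinylated aNog protein used at 0.15 µg/mL for 1 h at 4 C; z-score combines 667 nm fluorescence of each spot with its signal to noise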
Conditions: higher = more signal

- molecule: "CC(C)C[C@@H]1NC(=O)[C@@H]2C[C@H](C(=O)NCCCCCC[N+](C)(C)C)[C@H](c3ccc(O)cc3)N2C1=O"
  result: -0.158
- molecule: "N#Cc1ccc(NN2C(C(O)c3cccs3)C=CC3C(=O)N(c4ccccc4)C(=O)C32)cc1 (stereo not given)"
  result: 1.43
- molecule: "COc1ccc(C#Cc2ccc3c(c2)[C@]2(C(=O)N3)[C@H](C(=O)NC[C@H](O)c3ccccc3)[C@H]3C(=O)O[C@H](c4ccccc4)[C@H](c4ccccc4)N3[C@@H]2c2ccccc2OCCO)cc1"
  result: 0.325
- molecule: "CC(=CC1CCCCC1)[C@@H](NC(=O)c1ccc(C(F)(F)F)cc1)c1ccc(-c2ccccc2)cc1"
  result: 0.506
- molecule: "C=C(COC)C(=O)CC[C@H](OC(C)=O)c1cccc(OCCO)c1"
  result: -0.0428
- molecule: "COc1ccc(C#Cc2ccc3c(c2)[C@]2(C(=O)N3)[C@H](c3ccc(O)cc3)N3[C@H](c4ccccc4)[C@H](c4ccccc4)OC(=O)[C@H]3[C@@H]2C(=O)NC[C@H](O)c2ccccc2)cc1"
  result: 0.305
- molecule: "C=CCOC(=O)[C@@H]1[C@H]2C(=O)O[C@H](c3ccccc3)[C@H](c3ccccc3)N2[C@H](c2ccc(OCCOC(=O)[C@@H]3C[C@@H]4C(=O)N[C@@H](Cc5ccccc5)C(=O)N4[C@@H]3c3cccc(OCCO)c3)cc2)[C@@]12C(=O)Nc1ccc(I)cc12"
  result: 1.07
- molecule: "COc1ccc(C#Cc2ccc3c(c2)[C@]2(C(=O)N3)[C@H](c3ccc(O)cc3)N3[C@H](c4ccccc4)[C@H](c4ccccc4)OC(=O)[C@H]3[C@@H]2C(=O)N2CCCCCCC2)cc1"
  result: 2.75
- molecule: "Cc1ccc(S[C@]2(C(=O)NCC(C)C)CC(=O)N(Cc3ccccc3)[C@@H]2c2ccc(CO)cc2I)cc1"
  result: -0.67
- molecule: "Cc1ccc(S[C@]2(C(=O)NCCN3CCOCC3)CC(=O)N(Cc3cc(C(F)(F)F)cc(C(F)(F)F)c3)[C@@H]2c2ccc(CO)cc2I)cc1"
  result: -0.389

Entry COCCOC(=O)N1C(=O)[C@@]2(c3ccccc31)[C@H](C(=O)Nc1nc3ccccc3s1)[C@H]1C(=O)O[C@H](c3ccccc3)[C@H](c3ccccc3)N1[C@@H]2c1ccc(OCCO)cc1 ; composite z-score = 0.544

composite z-score in this record for O=C(O)[C@H]1C[C@H]2C(=O)NCC(=O)N2[C@H]1c1ccc(O)cc1 : -0.312

Lab book: composite z-score of COC(=O)C[C@@H]1C[C@H](C)[C@]2(O1)C(=O)N(Cc1ccccc1)c1ccc(NC(C)=O)cc12 noted as 0.0034

GET /value?item= O=C1O[C@@H](c2ccccc2)[C@@H](c2ccccc2)N2[C@@H](c3ccc(OCCO)cc3)[C@]3(C(=O)Nc4ccc(C#CC5=CCCCC5)cc43)[C@@H](C(=O)O)[C@H]12 &field=composite z-score returns 0.167

Briefly, composite z-score measured for CCOC(=O)C[C@H]1[C@H](OC(=O)c2ccc(-c3ccccc3)cc2)[C@@H](NC(=O)Cc2ccc(OC)cc2)c2cc(OCCCO)ccc2N1C(=O)c1ccc2ccccc2n1 : -0.201
